biological target: Phosphodiesterase 1 (Bos taurus, UniProt Q01061+P14100); experiment: Inhibition of bovine calmodulin-activated cAMP dependent phosphodiesterase; type: protein assay
Catalogue of IC50 values
measuredProperty: IC50 (µM)

>>> valueobserved("CC1C[C@]2(C)C(NCCCCN)=Nc3ccccc3[C@@H]2N(C)c2ccccc21 (stereo partly specified)")
116
>>> valueobserved("CN(c1ccccc1)C1c2ccccc2N=C(NCCCNCCCCN)C1(C)C (stereo unspecified)")
30
>>> valueobserved("CNc1cccc2c1[C@H](C)C[C@]1(C)C(NCCCNCCCCN)=Nc3ccccc3[C@H]21")
22
>>> valueobserved("CN(c1ccccc1)C1c2ccccc2N=C(NCCCNCCCCNCCCN)C1(C)C (stereo unspecified)")
8
>>> valueobserved("CNc1ccc(C2c3ccccc3N=C(NCCCNCCCCNCCCN)C2(C)C)cc1 (stereo unspecified)")
23
>>> valueobserved("CC1C[C@]2(C)C(NCCCNCCCCNCCCN)=Nc3ccccc3[C@@H]2N(C)c2ccccc21 (stereo partly specified)")
19
>>> valueobserved("CN(c1ccccc1)C1c2ccccc2N=C(NCCCCN)C1(C)C (stereo unspecified)")
51

---

test system: CHO-MG; test: Inhibition of cell growth in CHO-MG cells in the presence of DFMO; assay type: functional, cell-based; details: Cricetulus griseus
measuredProperty: IC50

>>> valueobserved("NCCCCN")
"> 100 µM"
>>> valueobserved("CN(c1ccccc1)C1c2ccccc2N=C(NCCCNCCCCN)C1(C)C (stereo not drawn)")
"> 100 µM"
>>> valueobserved("CNc1cccc2c1[C@H](C)C[C@]1(C)C(NCCCNCCCCN)=Nc3ccccc3[C@H]21")
"> 100 µM"
